- target-system: human cyclin-dependent kinase 2 (Cdk2) (Homo sapiens)
- Construct: poly-histidine; made in house; host or cells: E. coli
- method-notes: Kinetic thiol consumption assay with wild type Cdk2 (C177)
- Type: binding
- assay-conditions: model thiol Cdk2[C177A, F80C, K278C]
measure: k(Cdk2)/k(Cdk2_mut) rate enhancement

Solved entries:
C=CC(=O)NCCc1c(-c2ccccn2)[nH]c2ccccc12 :: 0.3446
C=CC(=O)Nc1nc2cc3c(cc2s1)OC(F)(F)O3 :: 1.361
C=CC(=O)Nc1cccc(-c2cc3ccccc3[nH]2)c1 :: 0.3049

Provide reported k(Cdk2)/k(Cdk2_mut) rate enhancement for each item, in the same order as listed.
1. C=CC(=O)N1CCN(C(=O)OC(C)(C)C)c2ccccc21
2. C=CC(=O)N1CCN(c2cc(N3CCOCC3)ncn2)CC1
3. C=CC(=O)NCc1ccc(-c2csnn2)cc1
4. C=CC(=O)N1CCN(c2ccccc2C(N)=O)CC1

[0.6586, 1.056, 0.2541, 1.221]

Each of the following entries comes with a recorded value; kindly state k(Cdk2)/k(Cdk2_mut) rate enhancement for each.
1. C=CC(=O)NC1CC(NC(=O)C2CCC2)C1 (centres unmarked)
2. C=CC(=O)N1CCc2sccc2C1c1cccs1 (centres unmarked)

[4.114, 0.1472]

Provide k(Cdk2)/k(Cdk2_mut) rate enhancement for all items below, preserving their order.
1. C=CC(=O)NCCCN(C(=O)C1CCC1)C1CC1
2. C=CC(=O)NCC1CCCN1S(=O)(=O)c1ccc(C)cc1 (centres unmarked)
3. C=CC(=O)N1CCCC(C(=O)OCC)C1 (centres unmarked)
4. C=CC(=O)Nc1sc2c(c1C(=O)NC1CC1)CCC2
5. C=CC(=O)N1CCN(C(=O)OC(C)(C)C)CC1
6. C=CC(=O)N1CCCC1c1cnc2ccccc2c1 (centres unmarked)
7. C=CC(=O)N1CCC(NC(=O)C2CCC2)C1 (centres unmarked)

1: 1.013; 2: 1.682; 3: 1.774; 4: 0.5342; 5: 1.45; 6: 0.7691; 7: 3.366
